system: Escherichia coli; assay: Binding affinity to Escherichia coli sliding clamp assessed as association rate constant by ITC analysis
Where a SMILES comes first, the peptide text is derived from it. [ ]: non-standard residue; d: D form. The star is where a group is joined. N(3-imidazol-1-ylpropyl)Gly = O=C(O)CNCCCn1ccnc1; Oic = O=C(O)[C@@H]1C[C@@H]2CCCC[C@@H]2N1; Hydrocinnamoyl = O=C(CCc1ccccc1)*; Cha = N[C@@H](CC1CCCCC1)C(=O)O
MEASURE: K

[[record]]
compound = "CC(=O)N[C@@H](CCC(N)=O)C(=O)N[C@@H](CC1CCCCC1)C(=O)N[C@@H](CC(=O)O)C(=O)N[C@@H](CC(C)C)C(=O)N[C@@H](Cc1ccccc1)C(N)=O (Ac-Q[Cha]DLF-NH2)"
result = "3.3 10^4/M/s"

[[record]]
compound = "CC(C)C[C@H](NC(=O)[C@H](CC(=O)O)NC(=O)[C@H](CC1CCCCC1)NC(=O)[C@H](CCC(N)=O)NC(=O)CCc1ccccc1)C(=O)N[C@@H](Cc1ccccc1)C(=O)O (Hydrocinnamoyl-Q[Cha]DLF-OH)"
result = "5.5 10^4/M/s"

[[record]]
compound = "CC(C)C[C@H](NC(=O)[C@H](CC(=O)O)NC(=O)[C@H](CC1CCCCC1)NC(=O)[C@H](CCC(N)=O)NC(=O)CNCCCn1ccnc1)C(=O)N[C@@H](Cc1ccccc1)C(=O)O (H-[N(3-imidazol-1-ylpropyl)Gly]Q[Cha]DLF-OH)"
result = "4.2 10^4/M/s"

[[record]]
compound = "CC(=O)N[C@@H](CCC(N)=O)C(=O)N[C@@H](CC1CCCCC1)C(=O)N[C@@H](CC(=O)O)C(=O)N[C@@H](CC(C)C)C(=O)N1[C@H](C(=O)N[C@@H](Cc2ccccc2)C(=O)O)C[C@@H]2CCCC[C@@H]21 (Ac-Q[Cha]DL[Oic]F-OH)"
result = "5.5 10^4/M/s"

